ASSAY_OVERVIEW: Metabolic stability in mouse hepatocytes assessed as intrinsic clearance
Type: ADME, cell-based, Liver, Hepatocyte

COMPOUND_SMILES: CC(C)(Oc1ccc(F)cc1Cl)C(=O)N[C@H]1C2CC3CC1C[C@](S(C)(=O)=O)(C3)C2
CLint scaled: 3.33 mL/min/kg

---

ASSAY_OVERVIEW: Metabolic stability in monkey hepatocytes assessed as intrinsic clearance
Type: ADME, cell-based, Macaca mulatta, Liver, Hepatocyte
CONDITIONS: rhesus monkey
OBSERVATION_TYPE: CLint scaled (mL/min/kg)

COMPOUND_SMILES: CC(C)(Oc1ccc(F)cc1Cl)C(=O)N[C@H]1C2CC3CC1C[C@](S(C)(=O)=O)(C3)C2
ENDPOINT_UNIT: mL/min/kg
RESULT_VALUE: 1.67

---

ASSAY_OVERVIEW: Metabolic stability in monkey liver microsomes assessed as intrinsic clearance
Type: ADME, Macaca mulatta, Microsome
CONDITIONS: rhesus monkey

COMPOUND_SMILES: CC(C)(Oc1ccc(F)cc1Cl)C(=O)N[C@H]1C2CC3CC1C[C@](S(C)(=O)=O)(C3)C2
CLint scaled: 25 mL/min/kg

---

Entries and their measured Vd follow.
ASSAY_OVERVIEW: Volume of distribution at terminal phase in mouse at 10 mg/kg
Assay type: ADME, organism-based
Design: dose 10 mg/kg
CONDITIONS: in vivo, read-out: Vbeta

COMPOUND_SMILES: CC(C)(Oc1ccc(F)cc1Cl)C(=O)N[C@H]1C2CC3CC1C[C@](S(C)(=O)=O)(C3)C2
ENDPOINT_UNIT: L/kg
Vd: 1.7
--
COMPOUND_SMILES: CC(C)(Oc1ccc(F)cc1Cl)C(=O)N[C@H]1C2CC3CC1C[C@](S(N)(=O)=O)(C3)C2
ENDPOINT_UNIT: L/kg
Vd: 3.5

---

ASSAY_OVERVIEW: AUC in mouse at 5 mg/kg, iv and 10 mg/kg, po
Type: ADME, organism-based
CONDITIONS: plasma

COMPOUND_SMILES: CC(C)(Oc1ccc(Cl)cc1)C(=O)N[C@H]1C2CC3CC1C[C@](S(N)(=O)=O)(C3)C2
ENDPOINT_UNIT: ng·h/mL
AUC: 18300

---

ASSAY_OVERVIEW: Oral bioavailability in monkey at 2.5 mg/kg
Format: ADME, organism-based, Macaca mulatta
CONDITIONS: rhesus monkey, in vivo

COMPOUND_SMILES: CC(C)(Oc1ccc(F)cc1Cl)C(=O)N[C@H]1C2CC3CC1C[C@](S(C)(=O)=O)(C3)C2
bioavailability, %: 109

---

ASSAY_OVERVIEW: AUC in mouse at 10 mg/kg, po
Format: ADME, organism-based
Design: dose 10 mg/kg, route oral
CONDITIONS: plasma
Measured AUC, listed per entry.
OBSERVATION_TYPE: AUC (ng·h/mL)

COMPOUND_SMILES: CC(C)(Oc1ccc(F)cc1Cl)C(=O)N[C@H]1C2CC3CC1C[C@](S(N)(=O)=O)(C3)C2
OBSERVATION_TYPE: AUC
RESULT_VALUE: 7000

COMPOUND_SMILES: CC(C)(Oc1ccc(F)cc1Cl)C(=O)N[C@H]1C2CC3CC1C[C@](S(C)(=O)=O)(C3)C2
OBSERVATION_TYPE: AUC
RESULT_VALUE: 8900

---

ASSAY_OVERVIEW: Oral bioavailability in mouse at 5 mg/kg, iv and 10 mg/kg, po
Assay type: ADME, organism-based
CONDITIONS: in vivo

COMPOUND_SMILES: CC(C)(Oc1ccc(Cl)cc1)C(=O)N[C@H]1C2CC3CC1C[C@](S(N)(=O)=O)(C3)C2
bioavailability, %: 150

---

Measured pKi, listed per entry.
TGT: 11-beta-hydroxysteroid dehydrogenase 1 (Mus musculus, UniProt P50172)
Sequence (P50172 whole entry): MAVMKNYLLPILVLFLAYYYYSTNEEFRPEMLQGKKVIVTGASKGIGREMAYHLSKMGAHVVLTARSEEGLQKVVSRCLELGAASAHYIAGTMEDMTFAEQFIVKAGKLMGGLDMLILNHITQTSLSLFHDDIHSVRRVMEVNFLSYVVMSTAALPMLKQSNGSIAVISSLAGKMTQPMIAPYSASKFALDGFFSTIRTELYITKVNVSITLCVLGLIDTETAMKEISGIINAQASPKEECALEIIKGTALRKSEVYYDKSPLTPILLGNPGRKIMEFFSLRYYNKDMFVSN
pKi: −log10 of the molar value.
OBSERVATION_TYPE: pKi

COMPOUND_SMILES: CC(C)(Oc1ccccc1C(F)(F)F)C(=O)N[C@H]1C2CC3CC1C[C@](S(C)(=O)=O)(C3)C2
TGT: 11-beta-hydroxysteroid dehydrogenase 1 (Mus musculus, UniProt P50172)
OBSERVATION_TYPE: pKi
RESULT_VALUE: 8.52
//
COMPOUND_SMILES: CC(C)(Oc1ccccc1OC(F)(F)F)C(=O)N[C@H]1C2CC3CC1C[C@](S(N)(=O)=O)(C3)C2
TGT: 11-beta-hydroxysteroid dehydrogenase 1 (Mus musculus, UniProt P50172)
OBSERVATION_TYPE: pKi
RESULT_VALUE: 8.52
//
COMPOUND_SMILES: CC(C)(Oc1ccc(F)cc1Cl)C(=O)N[C@H]1C2CC3CC1C[C@](S(=O)(=O)CCCN1CCOCC1)(C3)C2
TGT: 11-beta-hydroxysteroid dehydrogenase 1 (Mus musculus, UniProt P50172)
OBSERVATION_TYPE: pKi
RESULT_VALUE: 7.42
//
COMPOUND_SMILES: CC(C)(Oc1ccc(F)cc1Cl)C(=O)N[C@H]1C2CC3CC1C[C@](S(=O)(=O)CC(N)=O)(C3)C2
TGT: 11-beta-hydroxysteroid dehydrogenase 1 (Mus musculus, UniProt P50172)
OBSERVATION_TYPE: pKi
RESULT_VALUE: 8.40

---

# 11-beta-hydroxysteroid dehydrogenase 1 (Homo sapiens): Ki values follow

COMPOUND_SMILES: CC(C)(C(=O)N[C@H]1C2CC3CC1C[C@](S(N)(=O)=O)(C3)C2)c1ccccc1
TGT: 11-beta-hydroxysteroid dehydrogenase 1 (Homo sapiens)
Ki [nM]: 8
--
COMPOUND_SMILES: CC(C)(Oc1ccccc1C(F)(F)F)C(=O)N[C@H]1C2CC3CC1C[C@](S(C)(=O)=O)(C3)C2
TGT: 11-beta-hydroxysteroid dehydrogenase 1 (Homo sapiens)
Ki [nM]: 7
--
COMPOUND_SMILES: CC(C)(Oc1cccc(Cl)c1)C(=O)N[C@H]1C2CC3CC1C[C@](S(N)(=O)=O)(C3)C2
TGT: 11-beta-hydroxysteroid dehydrogenase 1 (Homo sapiens)
Ki [nM]: 4
--
COMPOUND_SMILES: CC(C)(Oc1c(Cl)cc(F)cc1Cl)C(=O)N[C@H]1C2CC3CC1C[C@](S(N)(=O)=O)(C3)C2
TGT: 11-beta-hydroxysteroid dehydrogenase 1 (Homo sapiens)
Ki [nM]: 3

---

ASSAY_OVERVIEW: Half life in mouse at 5 mg/kg, iv and 10 mg/kg, po
Type: ADME, organism-based
CONDITIONS: in vivo

COMPOUND_SMILES: CC(C)(Oc1ccc(Cl)cc1)C(=O)N[C@H]1C2CC3CC1C[C@](S(N)(=O)=O)(C3)C2
ENDPOINT_UNIT: h
half-life: 1.8

---

TGT: 11-beta-hydroxysteroid dehydrogenase 1 (Homo sapiens, UniProt P28845)
Sequence (P28845 whole entry): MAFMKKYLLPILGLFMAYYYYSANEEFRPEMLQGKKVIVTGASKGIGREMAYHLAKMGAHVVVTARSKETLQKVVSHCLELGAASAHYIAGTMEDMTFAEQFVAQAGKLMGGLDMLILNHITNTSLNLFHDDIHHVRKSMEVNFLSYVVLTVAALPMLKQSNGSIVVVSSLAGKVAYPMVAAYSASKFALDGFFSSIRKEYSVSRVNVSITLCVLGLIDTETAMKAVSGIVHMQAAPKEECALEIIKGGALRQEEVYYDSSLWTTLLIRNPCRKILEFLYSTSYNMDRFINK
Let's look at some compounds and their measured Ki.

COMPOUND_SMILES: CC(C)(Oc1ccc(F)cc1Cl)C(=O)N[C@H]1C2CC3CC1C[C@](S(=O)(=O)CCCN1CCOCC1)(C3)C2
Ki (µM): 0.11
--
COMPOUND_SMILES: CC(C)(Oc1ccc(F)cc1Cl)C(=O)N[C@H]1C2CC3CC1C[C@](S(N)(=O)=O)(C3)C2
Ki (µM): 0.006
--
COMPOUND_SMILES: CC(=O)NS(=O)(=O)[C@]12CC3CC(C1)[C@@H](NC(=O)C(C)(C)Oc1ccc(Cl)cc1)C(C3)C2
Ki (µM): 0.17

---

ASSAY_OVERVIEW: Volume of distribution at terminal phase in mouse at 5 mg/kg, iv and 10 mg/kg, po
Type: ADME, organism-based
CONDITIONS: in vivo, read-out: Vbeta

COMPOUND_SMILES: CC(C)(Oc1ccc(Cl)cc1)C(=O)N[C@H]1C2CC3CC1C[C@](S(N)(=O)=O)(C3)C2
ENDPOINT_UNIT: L/kg
Vd: 2.1

---

ASSAY_OVERVIEW: Metabolic stability in mouse liver microsomes assessed as compound remaining after 30 mins
Type: ADME, Microsome
CONDITIONS: read-out: Stability
Parameter: remaining at 0.5 h. Scope: all listed entries.

COMPOUND_SMILES: CC(C)(Oc1ccc(F)cc1Cl)C(=O)N[C@H]1C2CC3CC1C[C@](S(=O)(=O)CC(N)=O)(C3)C2
READING_QUALIFIER: =
remaining at 0.5 h, %: 59

COMPOUND_SMILES: CC(C)(Oc1ccc(Cl)cc1)C(=O)N[C@H]1C2CC3CC1C[C@](S(C)(=O)=O)(C3)C2
READING_QUALIFIER: =
remaining at 0.5 h, %: 70

COMPOUND_SMILES: CC(C)(Oc1ccccc1OC(F)(F)F)C(=O)N[C@H]1C2CC3CC1C[C@](S(N)(=O)=O)(C3)C2
READING_QUALIFIER: =
remaining at 0.5 h, %: 38

COMPOUND_SMILES: CC(C)(Oc1ccc(F)cc1Cl)C(=O)N[C@H]1C2CC3CC1C[C@](S(=O)(=O)CCCN1CCOCC1)(C3)C2
READING_QUALIFIER: <
remaining at 0.5 h, %: 1

COMPOUND_SMILES: CC(C)(Oc1ccccc1Cl)C(=O)N[C@H]1C2CC3CC1C[C@](S(N)(=O)=O)(C3)C2
READING_QUALIFIER: =
remaining at 0.5 h, %: 36

COMPOUND_SMILES: CNS(=O)(=O)[C@]12CC3CC(C1)[C@@H](NC(=O)C(C)(C)Oc1ccc(Cl)cc1)C(C3)C2
READING_QUALIFIER: <
remaining at 0.5 h, %: 1

COMPOUND_SMILES: CC(C)(Oc1ccc(F)cc1Cl)C(=O)N[C@H]1C2CC3CC1C[C@](S(N)(=O)=O)(C3)C2
READING_QUALIFIER: =
remaining at 0.5 h, %: 61

COMPOUND_SMILES: CC(C)(Oc1ccccc1)C(=O)N[C@H]1C2CC3CC1C[C@](S(N)(=O)=O)(C3)C2
READING_QUALIFIER: =
remaining at 0.5 h, %: 62

COMPOUND_SMILES: CC(C)(Oc1ccc(Cl)cc1)C(=O)N[C@H]1C2CC3CC1C[C@](S(N)(=O)=O)(C3)C2
READING_QUALIFIER: =
remaining at 0.5 h, %: 96

COMPOUND_SMILES: CC(C)(Oc1cccc(Cl)c1)C(=O)N[C@H]1C2CC3CC1C[C@](S(C)(=O)=O)(C3)C2
READING_QUALIFIER: =
remaining at 0.5 h, %: 7
